growth inhibition values for the compounds below.
Test: NCI Yeast Anticancer Drug Screen. Data for the cln2 rad14 strain (AID 165);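 note: 0% = growth equal to vehicle treated cultures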
Settings: S. cerevisiae cln2 rad14 strain, at 50.0 µM, stronger effect = higher value
Description: Growth inhibition of yeast strains with defined genetic alterations is measured as a screen for potential anti-cancer activity. Selected strains with alterations in DNA damage repair or cell cycle control were exposed to compounds and growth inhibition was measured relative to vehicle treated controls. The strain used in this assay is cln2 rad14
This is part of a sample that, as a whole, favours compounds with a hit. Of some 79,000 tested, about 15% had one in any assay.
EXPERIMENTAL READOUT: growth inhibition (%)

COMPOUND	READOUT VALUE
Cc1cccc(C(=O)OCCBr)c1	-28.4
Cc1ccc(O)c(O)c1	-8.9
CCCO[C@@H]1[C@@H](OC(C)=O)[C@@H](OC(C)=O)C(C)(C)/C=C/[C@H](C)C(=O)[C@@]2(OC(C)=O)C[C@@](C)(OC(C)=O)[C@H](OC(C)=O)[C@@H]2[C@H]2OC(=O)CC[C@@]12OC(=O)c1ccccc1	-16.1
CCN(CC)CC(O)C=O (centres undefined)	3.85
Cc1cc(=O)n(-c2ccc([N+](=O)[O-])cc2)c(C)c1C(=O)O	-0.15
O=C(O)/C=C\c1cc2c(cc1[N+](=O)[O-])OCO2	-12.2
CCOc1ccnc2c(OC)c(C)c3nc4ccccc4nc3c12	13.6
N#CC(Nc1ccccc1)c1ccc(C(C#N)Nc2ccccc2)cc1 (centres undefined)	-21.1
Cc1ccc(C(C)C)cc1NC(=O)NCCCl	-33.3
COc1ccc(/C(Nc2ccccc2)=C(\CCl)c2ccccc2)cc1OC	5.1
Clc1ccc(C=Nc2ccc3c(c2)Cc2ccccc2-3)c(Cl)c1	-3.85
CCOP(=O)(OCC)/C(C#N)=C\c1ccc(N(C)C)cc1	-13.7
N#C/C(c1ccccc1)=[N+](/[O-])O	-20.7
COC(=O)[C@]1(C)CCC[C@]2(C)c3cc(Br)c(C(C)C)cc3CC[C@H]12	-44.5
CCCC(O)c1ccccc1 (centres undefined)	5.3
COc1ccc(C(=O)c2ccccc2)c(N)c1	-18.9
Oc1nc(-c2ccccc2)sc1-c1ccccc1	-24
CCCC(C)(C)COC(=O)Cc1ccccc1	23.8
C=Cc1ccc(C)[n+](C[Si](C)(C)O[Si](C)(C)C)c1	19.4
CN(CCNC(=O)NC1CCCCC1)c1ccccc1	2.85
CCOC(=O)C(CC)N1C(=O)c2ccccc2S1(=O)=O (centres undefined)	48.2
CN1C(C(=O)O)CCC1C(=O)O (centres undefined)	-31.8
CCOC(=O)[C@H]1Nc2ccc(Cl)cc2[C@H]2OCC[C@@H]12	23.8
Cc1cc2nc(CC(=O)c3cccnc3)c(=O)[nH]c2cc1C	18.3

* * *

Assay: NCI Yeast Anticancer Drug Screen. Data for the sgs1 mgt1 strain (AID 161);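 note: 0% = growth of cultures given vehicle only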
Conditions: S. cerevisiae sgs1 mgt1 strain, at 50.0 µM
Description: Growth inhibition of yeast strains with defined genetic alterations is measured as a screen for potential anti-cancer activity. Selected strains with alterations in DNA damage repair or cell cycle control were exposed to compounds and growth inhibition was measured relative to vehicle treated controls. The strain used in this assay is sgs1 mgt1
The panel holds about 79,000 compounds, 15% with a hit somewhere; the sample as a whole holds those more often. Calls of active or inactive are those of the source. Cut-off read from the data, not from the text of the source: active = growth inhibition above about 70%; inactive = the rest.
Outcomes: y for active, n for inactive

> print(dat)
                                    compound  qualitative.label
 1          C/C=C/C(=O)Nc1cc(C(F)(F)F)ccc1Cl                  n
 2  CSCCC(C(=O)O)N(CC1(O)OCC(O)C(O)C1O)N=O (centres undefined)                  n
 3     O=P(O)(O)CCC(O)CO (centres undefined)                  n
 4  O=C(O)c1c(Cl)c(Cl)c(Cl)c(Cl)c1C(=O)Nc1cccc(C(F)(F)F)c1                  n
 5  CC1(C)OC2COC(CN(N=O)C(N)=O)C2O1 (centres undefined)                  n
 6  CCC(C)CCC(=O)C(C)C=O (centres undefined)                  n
 7  N#Cc1c2c(c(N=P(c3ccccc3)(c3ccccc3)c3ccccc3)n3c1nc1ccccc13)CCCC2                  n
 8  CC1=C(C(=O)NCc2ccccc2)C(c2cccc([N+](=O)[O-])c2)C(C(=O)NCc2ccccc2)=C(C)N1                  n
 9  N#CC1(C#N)C(c2ccccc2)C1(C#N)C(N)=O (centres undefined)                  n
10  Clc1ccc(-c2nnc(C34CC5CC(CC(C5)C3)C4)o2)cc1                  n
11                       Nc1nnnn1NC(=O)NCCCl                  n
12  Cc1ccccc1C1OC(=O)c2ccccc21 (centres undefined)                  n
13  C=CCC12CC(C)OC1=Nc1ccccc1NC2=O (centres undefined)                  n
14  Cc1ccc(S(=O)(=O)NC(Cc2ccc(O)cc2)C(=O)O)cc1 (centres undefined)                  n
15               CCNC(=O)Oc1cccc(NC(=O)CC)c1                  n
16  COC(=O)/C=C1\CCC(C)O1 (centres undefined)                  n
17  O=c1c(Br)nn(C(c2ccccc2)c2ccccc2)c(=O)n1C(c1ccccc1)c1ccccc1                  n
18  O=C(OCC(Cl)(Cl)Cl)N1[C@H]2C3=C(CCC3)[C@@H]([C@H]3O[C@H]32)N1C(=O)OCC(Cl)(Cl)Cl                  n
19  CC1=CC(=C(c2cc(C)c(O)c(C(=O)O)c2)c2cc(C)c(O)c(C(=O)O)c2)C=C(C(=O)O)C1=O                  n
20               C[N+](C)(C)CCc1ccc2ccccc2c1                  n
21                           CCCCCC/C(C)=N/O                  n
22       CCCc1cc(C(=O)OC/C(C)=N/O)c2ccccc2n1                  n
23             c1ccc2c(c1)ccc1c3c(oc12)CCCC3                  n
24        O=[N+]([O-])c1ccc(OCCCCCBr)c(Cl)c1                  y
25  O=C(O)C1CCCN1Cc1cc2ccccc2c2ccccc12 (centres undefined)                  n
26           CC(C)Cc1cn(O)c2nc(=N)nc(N)c-2n1                  n
27  O=CC(O)C(O)C(O)C(O)COC1OC(CO)C(O)C(O)C1O (centres undefined)                  n
28  C1C2CC3CC1CC(c1nn4c(C56CC7CC(CC(C7)C5)C6)nnc4s1)(C2)C3                  n
29          CCC(C=NCCBr)(CCC(=O)OC)CCC(=O)OC                  n
30  NC1=C(Br)C(=O)c2[nH]c(=O)[nH]c(=O)c2C1=O                  n
31        O=C1CN(CN2CCOCC2)C(=O)CN1CN1CCOCC1                  n
32                      CN(C)CCC1(C#N)CCCCC1                  n
33  [N-]=[N+]=Nc1ccccc1C(=O)NCCCNC(=O)c1ccccc1N=[N+]=[N-]                  n
34                      Cc1cccc(C)c1C1=NCCN1                  n
35                    CC(C)=CCC/C(C)=C\COC=O                  n
36              CSC(/C=C/c1ccccc1)=Nc1ccccc1                  n
37  O=C1N(c2ccccc2)C2(O)C(=O)c3ccccc3C2(O)N1c1ccccc1 (centres undefined)                  n
38    CCN(CC)CCN1CC(=O)N2Cc3ccccc3CN2C(=O)C1                  n
39  COCn1cnc2c(ccn2C2OC(CO)C(O)C2O)c1=O (centres undefined)                  n
40                   C[Si](C)(C)C#CCOC=C1CC1                  n
41                            C1#CCSCC#CCSC1                  n
42  O=C1C2C3CCC(O3)C2C(=O)N1c1ccccn1 (centres undefined)                  n
43  C[N+]1(C(CO)Cc2c[nH]c3ccccc23)Cc2ccccc2C1 (centres undefined)                  n
44                      CCOC(=O)c1cnc(N)nc1N                  n
45          CC1([N+](=O)[O-])COC2(CCCCC2)OC1                  n
46  O=c1oc2ccccc2c(O)c1C(c1ccc2c(c1)OCO2)N1CCOCC1 (centres undefined)                  n
47  Oc1ccc([C@H]2Oc3c(c(O)cc4c3C3c5c(O)cc(O)cc5OC(c5ccc(O)cc5)(O4)[C@H]3O)CC2O)cc1 (some centres undefined)                  n
48   COC(=O)c1nc(N)nc(C(=O)OC)c1C(=O)c1cccs1                  n
49  CCN(CC)CCNC(=O)c1ccccc1NC(=O)C(=O)Nc1ccccc1C(=O)NCCN(CC)CC                  n
